System: HEK-293 and HEK-293/BKRB1 tumours
Assay: Biodistribution of Ga-68 Peptide 12 in tumour-bearing mice
Format: in vivo, mouse
Details: Seminal glands; 1 h post-injection
Description: Peptide 12 is an […] version of Peptide 3 that was developed by substituting the C-terminal Leu residue with a D-Phe residue.
readout_name: Biodistribution Seminal glands Average (%ID/g)
Give the value, in units of %ID/g, as a plain number.

Please look at this compound and report its Biodistribution Seminal glands Average: N=C(N)NCCC[C@H](NC(=O)[C@H](CCCCN)NC(=O)CCCCCNC(=O)CN1CCN(CC(=O)O)CCN(CC(=O)O)CCN(CC(=O)O)CC1)C(=O)N1CCC[C@H]1C(=O)N1C[C@H](O)C[C@H]1C(=O)NCC(=O)N[C@@H](CC1CCCCC1)C(=O)N[C@@H](CO)C(=O)N1CCC[C@H]1C(=O)N[C@H](Cc1ccccc1)C(=O)O [Ga-68 Peptide 12, metal not drawn]
0.23

====

Experiment: in vivo
Conditions: NODSCID IL2RKO, mouse, iv, 3.7 MBq, total radioactivity, % ID/g Spleen Average
Where a SMILES comes first, the peptide text is derived from it. [ ]: non-standard residue; d: D form. The star is where a group is joined. DOTA = O=C(O)CN1CCN(CC(=O)O)CCN(CC(=O)*)CCN(CC(=O)O)CC1; Hyp = O=C(O)[C@@H]1C[C@@H](O)CN1; Cha = N[C@@H](CC1CCCCC1)C(=O)O; PEG2 = NCCOCCOCCC(=O)O
readout_name: tissue uptake at 1 h (%ID/g)
Give the value, in units of %ID/g, as a plain number.

Please look at this compound and report its tissue uptake at 1 h: CC(C)C[C@H](NC(=O)[C@@H]1CCCN1C(=O)[C@H](CO)NC(=O)[C@H](CC1CCCCC1)NC(=O)CNC(=O)[C@@H]1C[C@@H](O)CN1C(=O)[C@@H]1CCCN1C(=O)[C@H](CCCNC(=N)N)NC(=O)[C@H](CCCCN)NC(=O)CCOCCOCCNC(=O)CN1CCN(CC(=O)O)CCN(CC(=O)O)CCN(CC(=O)O)CC1)C(=O)O [Ga-68 Peptide 3, metal not drawn] ({DOTA-PEG2}-KRP[Hyp]G[Cha]SPL-OH)
0.11

====

Tested on: HEK-293 and HEK-293/BKRB1 tumours
Assay: Biodistribution of Ga-68 Peptide 12 in tumour-bearing mice
Type: in vivo, mouse
Settings: Heart; 1 h post-injection
readout_name: Biodistribution Heart Average (%ID/g)
Give the value, in units of %ID/g, as a plain number.

Please look at this molecule and report its Biodistribution Heart Average: N=C(N)NCCC[C@H](NC(=O)[C@H](CCCCN)NC(=O)CCCCCNC(=O)CN1CCN(CC(=O)O)CCN(CC(=O)O)CCN(CC(=O)O)CC1)C(=O)N1CCC[C@H]1C(=O)N1C[C@H](O)C[C@H]1C(=O)NCC(=O)N[C@@H](CC1CCCCC1)C(=O)N[C@@H](CO)C(=O)N1CCC[C@H]1C(=O)N[C@H](Cc1ccccc1)C(=O)O [Ga-68 Peptide 12, metal not drawn]
0.15

====

Biological target: B1R (Homo sapiens, UniProt P46663)
Sequence (P46663 whole entry): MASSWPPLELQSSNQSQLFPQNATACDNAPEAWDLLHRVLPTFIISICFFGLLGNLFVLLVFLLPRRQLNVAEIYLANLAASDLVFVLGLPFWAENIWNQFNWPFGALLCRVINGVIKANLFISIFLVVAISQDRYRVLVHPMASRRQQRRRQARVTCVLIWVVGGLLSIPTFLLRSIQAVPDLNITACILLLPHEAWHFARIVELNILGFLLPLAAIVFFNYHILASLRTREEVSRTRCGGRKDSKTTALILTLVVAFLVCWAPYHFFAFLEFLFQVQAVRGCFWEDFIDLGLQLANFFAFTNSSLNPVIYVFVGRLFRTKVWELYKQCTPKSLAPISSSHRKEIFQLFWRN
Assay: Competitive binding assay with 3H radioligand on CHO-K1 cell membranes over-expressing human B1R
Set-up: purchased Perkin Elmer Inc., Waltham, Mass; ES-091-M400UA; host or cells: CHO-K1 cells over-expressing human B1R (membrane preparation)
Conditions: Hot 12.5 nM BK-ANT-ARC; CHO-K1 membranes; individual assays; read-out: Ki
readout_name: Ki (nM)
Give the value, in units of nM, as a plain number.

Please look at this molecule and report its Ki: `Cc1ccc(S(=O)(=O)N2c3ccccc3NC(=O)[C@H]2CC(=O)Nc2ccc(N3CCN(CCF)CC3)cc2)cc1`
20.7

====

Test system: HEK-293 and HEK-293/BKRB1 tumours
Test: Biodistribution of Ga-68 Peptide 12 in tumour-bearing mice
Type: in vivo, mouse
Conditions: Testes; 1 h post-injection
Excerpt: Peptide 12 is an […] version of Peptide 3 that was developed by substituting the C-terminal Leu residue with a D-Phe residue.
readout_name: Biodistribution Testes Average (%ID/g)
Give the value, in units of %ID/g, as a plain number.

Please look at this compound and report its Biodistribution Testes Average: N=C(N)NCCC[C@H](NC(=O)[C@H](CCCCN)NC(=O)CCCCCNC(=O)CN1CCN(CC(=O)O)CCN(CC(=O)O)CCN(CC(=O)O)CC1)C(=O)N1CCC[C@H]1C(=O)N1C[C@H](O)C[C@H]1C(=O)NCC(=O)N[C@@H](CC1CCCCC1)C(=O)N[C@@H](CO)C(=O)N1CCC[C@H]1C(=O)N[C@H](Cc1ccccc1)C(=O)O [Ga-68 Peptide 12, metal not drawn]
0.132

====

Assay: in vivo
Details: NODSCID IL2RKO, mouse, iv, 3.7 MBq, total radioactivity, % ID/g RIGHT Tumour (GFP) Average
Where a SMILES comes first, the peptide text is derived from it. [ ]: non-standard residue; d: D form. The star is where a group is joined. DOTA = O=C(O)CN1CCN(CC(=O)O)CCN(CC(=O)*)CCN(CC(=O)O)CC1; Hyp = O=C(O)[C@@H]1C[C@@H](O)CN1; Cha = N[C@@H](CC1CCCCC1)C(=O)O; PEG2 = NCCOCCOCCC(=O)O
readout_name: tissue uptake at 1 h
Answer format reminder: number followed by unit.

Please look at this molecule and report its tissue uptake at 1 h: CC(C)C[C@H](NC(=O)[C@@H]1CCCN1C(=O)[C@H](CO)NC(=O)[C@H](CC1CCCCC1)NC(=O)CNC(=O)[C@@H]1C[C@@H](O)CN1C(=O)[C@@H]1CCCN1C(=O)[C@H](CCCNC(=N)N)NC(=O)[C@H](CCCCN)NC(=O)CCOCCOCCNC(=O)CN1CCN(CC(=O)O)CCN(CC(=O)O)CCN(CC(=O)O)CC1)C(=O)O [Ga-68 Peptide 3, metal not drawn] ({DOTA-PEG2}-KRP[Hyp]G[Cha]SPL-OH)
0.23 %ID/g

====

Assay: in vivo
Details: NODSCID IL2RKO, mouse, iv, 3.7 MBq, total radioactivity, % ID/g Heart Average
Where a SMILES comes first, the peptide text is derived from it. [ ]: non-standard residue; d: D form. The star is where a group is joined. DOTA = O=C(O)CN1CCN(CC(=O)O)CCN(CC(=O)*)CCN(CC(=O)O)CC1; Hyp = O=C(O)[C@@H]1C[C@@H](O)CN1; Cha = N[C@@H](CC1CCCCC1)C(=O)O; PEG2 = NCCOCCOCCC(=O)O
readout_name: tissue uptake at 1 h

Please look at this compound and report its tissue uptake at 1 h: CC(C)C[C@H](NC(=O)[C@@H]1CCCN1C(=O)[C@H](CO)NC(=O)[C@H](CC1CCCCC1)NC(=O)CNC(=O)[C@@H]1C[C@@H](O)CN1C(=O)[C@@H]1CCCN1C(=O)[C@H](CCCNC(=N)N)NC(=O)[C@H](CCCCN)NC(=O)CCOCCOCCNC(=O)CN1CCN(CC(=O)O)CCN(CC(=O)O)CCN(CC(=O)O)CC1)C(=O)O [Ga-68 Peptide 3, metal not drawn] ({DOTA-PEG2}-KRP[Hyp]G[Cha]SPL-OH)
0.19 %ID/g

====

System: HEK-293 and HEK-293/BKRB1 tumours
Test: Biodistribution of Ga-68 Peptide 12 in tumour-bearing mice
Assay type: in vivo, mouse
Settings: Large intestine; 1 h post-injection
readout_name: Biodistribution Large intestine Average (%ID/g)
Give the value, in units of %ID/g, as a plain number.

Please look at this compound and report its Biodistribution Large intestine Average: N=C(N)NCCC[C@H](NC(=O)[C@H](CCCCN)NC(=O)CCCCCNC(=O)CN1CCN(CC(=O)O)CCN(CC(=O)O)CCN(CC(=O)O)CC1)C(=O)N1CCC[C@H]1C(=O)N1C[C@H](O)C[C@H]1C(=O)NCC(=O)N[C@@H](CC1CCCCC1)C(=O)N[C@@H](CO)C(=O)N1CCC[C@H]1C(=O)N[C@H](Cc1ccccc1)C(=O)O [Ga-68 Peptide 12, metal not drawn]
0.149

====

Experiment: in vivo
Settings: NODSCID IL2RKO, mouse, iv, 3.7 MBq, total radioactivity, % ID/g Blood Average
Where a SMILES comes first, the peptide text is derived from it. [ ]: non-standard residue; d: D form. The star is where a group is joined. DOTA = O=C(O)CN1CCN(CC(=O)O)CCN(CC(=O)*)CCN(CC(=O)O)CC1; Hyp = O=C(O)[C@@H]1C[C@@H](O)CN1; Cha = N[C@@H](CC1CCCCC1)C(=O)O; PEG2 = NCCOCCOCCC(=O)O
readout_name: tissue uptake at 1 h (%ID/g)
Give the value, in units of %ID/g, as a plain number.

Please look at this compound and report its tissue uptake at 1 h: CC(C)C[C@H](NC(=O)[C@@H]1CCCN1C(=O)[C@H](CO)NC(=O)[C@H](CC1CCCCC1)NC(=O)CNC(=O)[C@@H]1C[C@@H](O)CN1C(=O)[C@@H]1CCCN1C(=O)[C@H](CCCNC(=N)N)NC(=O)[C@H](CCCCN)NC(=O)CCOCCOCCNC(=O)CN1CCN(CC(=O)O)CCN(CC(=O)O)CCN(CC(=O)O)CC1)C(=O)O [Ga-68 Peptide 3, metal not drawn] ({DOTA-PEG2}-KRP[Hyp]G[Cha]SPL-OH)
0.26
